Values from ChEMBL document CHEMBL4011649

target: 5-hydroxytryptamine receptor 2C (Homo sapiens, UniProt P28335); assay: Agonist activity at human 5-HT2C-INI receptor isoform expressed in Flp-IN HEK293 cells assessed as induction of Gq-mediated calcium flux measured every second for 5 mins by Fluo-4 dye based FLIPR assay; type: functional, cell-based; conditions: read-out: EC50
Sequence (P28335 whole entry, canonical isoform): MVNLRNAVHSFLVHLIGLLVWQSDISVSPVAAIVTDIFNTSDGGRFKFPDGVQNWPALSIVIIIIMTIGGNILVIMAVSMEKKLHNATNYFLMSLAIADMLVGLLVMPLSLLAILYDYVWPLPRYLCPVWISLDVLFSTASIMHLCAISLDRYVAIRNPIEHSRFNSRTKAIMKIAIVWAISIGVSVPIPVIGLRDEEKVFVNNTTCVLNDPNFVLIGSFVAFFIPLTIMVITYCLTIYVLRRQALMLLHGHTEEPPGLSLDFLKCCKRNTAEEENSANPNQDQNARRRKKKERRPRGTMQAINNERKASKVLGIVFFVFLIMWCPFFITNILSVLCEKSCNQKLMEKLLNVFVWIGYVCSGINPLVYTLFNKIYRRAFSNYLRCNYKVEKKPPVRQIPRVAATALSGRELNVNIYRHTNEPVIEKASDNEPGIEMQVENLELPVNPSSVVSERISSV
PROPERTY NAME: pEC50
The scale used: pEC50 is minus the common logarithm of the concentration in molar units.

Prompt: Lab note: need pEC50 with 5-hydroxytryptamine receptor 2C (Homo sapiens, UniProt P28335) for entry COc1ccc(F)cc1[C@@H]1C[C@H]1CNCc1ccccc1F.Cl , please look it up.
Response: 5.79

Prompt: What do you get for COc1ccc(F)cc1C1CC1CNC1(c2ccccc2OC)CC1.Cl (racemic) ?
Response: 6.06

Prompt: Do the same for COc1ccc(F)cc1[C@H]1C[C@@H]1CNCc1ccccc1F.Cl please
Response: 6.30

Prompt: Entry to check: C=CCOc1ccc(F)cc1[C@H]1C[C@@H]1CNC.Cl
Response: 7.89

Prompt: Also COc1ccc(F)cc1C1CC1CNC1CC1 (racemic) , if possible.
Response: 6.40

Prompt: Next record, please: COc1cccc(CNC[C@@H]2C[C@H]2c2cc(F)ccc2OC)c1.Cl
Response: 5.59

Prompt: Try COc1ccccc1C(C)NCC1CC1c1cc(F)ccc1OC.Cl (racemic) next.
Response: 5.59

Prompt: # repeat for COc1ccc(F)cc1C1CC1CNCc1cccc2ccsc12 (racemic)
Response: 6.11

Prompt: Here is the next compound: COc1ccc(F)cc1[C@@H]1C[C@H]1CNCc1cccs1.Cl
Response: 6.51

Prompt: Record: COc1ccc(F)cc1C1CC1CNCc1ccsc1OC.Cl (racemic)
Response: 6.25

Prompt: Next compound: COc1ccc(F)cc1C1CC1CNCC1CCCCC1.Cl (racemic)
Response: 7.02

Prompt: Then COc1ccc(F)cc1C1CC1CNCc1ccccc1C#N (racemic) ?
Response: 6.61

Prompt: Continue with COc1ccc(F)cc1C1CC1CNCc1ccccc1OCCF (racemic)
Response: 7.55

Prompt: Would you mind doing COc1ccc(F)cc1[C@@H]1C[C@H]1CNCc1ccccc1Cl.Cl as well?
Response: 5.73

Prompt: Also COc1ccc(F)cc1C1CC1CNCc1cccc2cccnc12 (racemic) , if possible.
Response: 6.28

Prompt: Then this compound: COc1ccc(F)cc1C1CC1CNCc1ccccc1O.Cl (racemic)
Response: 6.52
